- SYSTEM: IL-13 (Homo sapiens (Human), UniProt P35225 35-146, limits assumed)
- Sequence (P35225 35-146 limits assumed): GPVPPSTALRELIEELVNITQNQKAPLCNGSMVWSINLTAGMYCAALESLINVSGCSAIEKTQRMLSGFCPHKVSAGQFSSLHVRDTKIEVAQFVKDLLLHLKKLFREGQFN
- ASSAY_REMARKS: Biacore
Reported Kd values for the following binders.
Kindly provide the numeric value in nM only, without the unit symbol.

BINDER	Kd [nM]
M447 (antibody, V domains shown, anti-IL-13, human IgG1) VH: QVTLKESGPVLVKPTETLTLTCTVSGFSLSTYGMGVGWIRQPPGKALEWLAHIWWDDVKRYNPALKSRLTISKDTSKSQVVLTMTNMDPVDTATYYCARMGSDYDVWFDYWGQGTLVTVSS VL: EIVLTQSPATLSLSPGERATLSCRASKSISKYLAWYQQKPGQAPRLLIYSGSTLQSGIPARFSGSGSGTDFTLTISSLEPEDFAVYYCQQQDIGPYTFGQGTKLEIK	0.055

So what's the measured Kd for this one? M1268 (antibody, V domains shown, anti-IL-13, human IgG1; text gives the Met positions as 34 and 100; copies: 2 + 2) VH: QVTLKESGPVLVKPTETLTLTCTVSGFSLSTYGVGVGWIRQPPGKALEWLAHIWWDDVKRYNPALKSRLTISKDTSKSQVVLTMTNMDPVDTATYYCARLGSDYDVWFDYWGQGTLVTVSS VL: EIVLTQSPATLSLSPGERATLSCRASKSISKYLAWYQQKPGQAPRLLIYSGSTLQSGIPARFSGSGSGTDFTLTISSLEPEDFAVYYCQQHNEYPYTFGQGTKLEIK 0.621

So what's the measured Kd for this one? M1286 (antibody, V domains shown) VH: QVTLKESGPVLVKPTETLTLTCTVSGFSLSTYGSGVGWIRQPPGKALEWLAHIWWDDVKRYNPALKSRLTISKDTSKSQVVLTMTNMDPVDTATYYCARLGSDYDVWFDYWGQGTLVTVSS VL: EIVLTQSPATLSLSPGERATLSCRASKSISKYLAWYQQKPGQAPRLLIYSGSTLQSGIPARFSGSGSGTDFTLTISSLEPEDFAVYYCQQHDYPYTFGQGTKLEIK 0.009

Where do the numbers come from? From patent US20100261620A1.
